Tested on: 636577-100-R-J1-PDC complex spheroid viability
Assay Overview: Anticancer human tumor 636577-100-R-J1-PDC patient-derived endometrial adenocarcinoma cell line growth inhibition [GQUAD]
Stated Conditions: second compound 10 µM; first compound 0.316 µM; stronger effect = lower value
Endpoint Name: viability, T/C (%)
Return type: number; implicit unit %.

* CCCS(=O)(=O)Nc1ccc(F)c(C(=O)c2c[nH]c3ncc(-c4ccc(Cl)cc4)cc23)c1F + CN(C)c1ccc(Nc2c3ccc(NC(=O)CCN4CCCC4)cc3nc3cc(NC(=O)CCN4CCCC4)ccc23)cc1 | 6.13

Memo: O=c1[nH]cc(F)c(=O)[nH]1 + CN(C)c1ccc(Nc2c3ccc(NC(=O)CCN4CCCC4)cc3nc3cc(NC(=O)CCN4CCCC4)ccc23)cc1 , reported viability, T/C: 6.89

Memo: CC1COCCN1c1cc(C2(O)CC3CCC(C2)O3)c2cnn(-c3ccn[nH]3)c2n1 (stereo not given) + CN(C)c1ccc(Nc2c3ccc(NC(=O)CCN4CCCC4)cc3nc3cc(NC(=O)CCN4CCCC4)ccc23)cc1 , reported viability, T/C: 2.43

Memo: COc1ncnc(C2CC2)c1-c1ncc2cnn(Cc3ccc(-c4nc(C(F)(F)F)cn4C(C)C)cc3)c2n1 + Cc1cnc(CNC(=O)c2c(=O)c3ccc(N4CCCN(C)CC4)nc3n3c2sc2ccccc23)cn1 , reported viability, T/C: 23.5

Memo: Nc1ccn(C2OC(CO)C(O)C2(F)F)c(=O)n1 (stereo not given) + CN(C)c1ccc(Nc2c3ccc(NC(=O)CCN4CCCC4)cc3nc3cc(NC(=O)CCN4CCCC4)ccc23)cc1 , reported viability, T/C: 4

Memo: CC(=O)O[C@H]1C(=O)[C@@]2(C)[C@H]([C@H](OC(=O)c3ccccc3)[C@]3(O)C[C@H](OC(=O)[C@H](O)[C@@H](NC(=O)c4ccccc4)c4ccccc4)C(C)=C1C3(C)C)[C@]1(OC(C)=O)CO[C@@H]1C[C@@H]2O + Cc1[nH]c2ccc(F)cc2c1-c1nc2c3cccnc3c3ncccc3c2[nH]1 , reported viability, T/C: 10.5

Memo: C=CCn1c(=O)c2cnc(Nc3ccc(N4CCN(C)CC4)cc3)nc2n1-c1cccc(C(C)(C)O)n1 + Cc1cnc(CNC(=O)c2c(=O)c3ccc(N4CCCN(C)CC4)nc3n3c2sc2ccccc23)cn1 , reported viability, T/C: 24.2

Memo: C=CC(=O)N1CCN(c2nc(=O)n(-c3c(C)ccnc3C(C)C)c3nc(-c4c(O)cccc4F)c(F)cc23)C(C)C1 (stereo not given) + Cc1cnc(CNC(=O)c2c(=O)c3ccc(N4CCCN(C)CC4)nc3n3c2sc2ccccc23)cn1 , reported viability, T/C: 23.9

Memo: CC1COCCN1c1cc(C2(O)CC3CCC(C2)O3)c2cnn(-c3ccn[nH]3)c2n1 (stereo not given) + Cc1[nH]c2ccc(F)cc2c1-c1nc2c3cccnc3c3ncccc3c2[nH]1 , reported viability, T/C: 15.2

Memo: O=C(NO)c1cnc(N2CCN(S(=O)(=O)c3ccc4ccccc4c3)CC2)nc1 + Cc1cnc(CNC(=O)c2c(=O)c3ccc(N4CCCN(C)CC4)nc3n3c2sc2ccccc23)cn1 , reported viability, T/C: 10.8

* * *

System: 636577-100-R-J1-PDC complex spheroid viability
Assay Overview: Anticancer human tumor 636577-100-R-J1-PDC cell line growth inhibition [GQUAD];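 also: viability read after seven days of drug exposure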
Stated Conditions: curve of first compound; second compound 0.1 µM
Endpoint Name: pIC50
Scale explanation: pIC50 corresponds to minus log10 of a concentration expressed in moles per litre.

* C=CCn1c(=O)c2cnc(Nc3ccc(N4CCN(C)CC4)cc3)nc2n1-c1cccc(C(C)(C)O)n1 + CN(C)c1ccc(Nc2c3ccc(NC(=O)CCN4CCCC4)cc3nc3cc(NC(=O)CCN4CCCC4)ccc23)cc1 | 6.52

Memo: CC1COCCN1c1cc(C2(S(C)(=N)=O)CC2)nc(-c2ccnc3[nH]ccc23)n1 (stereo not given) + CN(C)c1ccc(Nc2c3ccc(NC(=O)CCN4CCCC4)cc3nc3cc(NC(=O)CCN4CCCC4)ccc23)cc1 , reported pIC50: 6.03
